System tested: T1, 4H55-AA
T1 chain: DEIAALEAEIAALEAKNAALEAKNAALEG
Assay overview: two-hybrid library CCmax;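 also: natural log of median RNA to DNA barcode read ratio; higher means stronger binding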
Experimental setup: mean of both orientations
Could you please report measured interaction score for the items listed next?
Numbers only.

Study these solved cases before continuing.
{"columns": ["Binder", "interaction score"],
 "data": [
  ["DKIAALKAENAALEAKIAALEAKIAALKG [4H2726-AA]", -1.14],
  ["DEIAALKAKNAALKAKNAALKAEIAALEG [4H1017-AA]", -1.6],
  ["DKIAALKAKIAALKAKNAALEAKNAALEG [4H2935-AA]", 1.48],
  ["DKIAALEAKNAALKAKIAALEAKNAALKG [4H2536-AA]", -1.17],
  ["DKIAALEAENAALEAKNAALKAKIAALKG [4H2238-AA]", -1.77]
]}

// for each binder below, give its interaction score
1. DENAALEAENAALEAKIAALKAKIAALKG [4H1198-AA]
2. DKIAALKAEIAALEAKNAALEAKIAALKG [4H2614-AA]

A:
1. -0.467
2. -0.185
